Assay: Light stability of printed patches (Weather-Ometer, xenon lamp)
Format: physicochemical
Set-up: key: A: excellent; B: good; C: satisfactory; D: unsatisfactory
Details: A: HP Printing Paper HPP 1122 (paper); 20 megalux hours, 20° C., 50% relative humidity
Assay Endpoint: Light Stability (Class) on Recording Sheet A

Cc1cc(Nc2nc(NCCO)nc(Nc3ccc(/N=N/c4cc(S(=O)(=O)[O-])c5cccc(S(=O)(=O)[O-])c5c4)c(C)c3)n2)ccc1/N=N/c1cc(S(=O)(=O)[O-])c2cccc(S(=O)(=O)[O-])c2c1.[Na+].[Na+].[Na+].[Na+] [Dye No. II, Direct Yellow 86, reference compound] ... B
O=S(=O)([O-])CCNc1nc(Nc2ccc(N=Nc3cc(S(=O)(=O)[O-])c4cccc(S(=O)(=O)[O-])c4c3)cc2)nc(Nc2ccc(N=Nc3cc(S(=O)(=O)[O-])c4cccc(S(=O)(=O)[O-])c4c3)cc2)n1.[Na+].[Na+].[Na+].[Na+].[Na+] [Dye No. 11] ... B
O=S(=O)([O-])c1cc(/N=N/c2ccc(Nc3nc(NCCO)nc(Nc4ccc(/N=N/c5cc(S(=O)(=O)[O-])c6cccc(S(=O)(=O)[O-])c6c5)cc4)n3)cc2)cc2c(S(=O)(=O)[O-])cccc12.[Na+].[Na+].[Na+].[Na+] [Dye No. I, reference compound] ... A
O=S(=O)([O-])CCNc1nc(Nc2ccc(N=Nc3ccc4cc(S(=O)(=O)[O-])cc(S(=O)(=O)[O-])c4c3)cc2)nc(Nc2ccc(N=Nc3ccc4cc(S(=O)(=O)[O-])cc(S(=O)(=O)[O-])c4c3)cc2)n1.[Na+].[Na+].[Na+].[Na+].[Na+] [Dye No. 16] ... B
